# Study System: Dimeric Human Ang-2FD conjugated to human IgG1 (human)
# Sequence (chain, as listed by the source limits assumed): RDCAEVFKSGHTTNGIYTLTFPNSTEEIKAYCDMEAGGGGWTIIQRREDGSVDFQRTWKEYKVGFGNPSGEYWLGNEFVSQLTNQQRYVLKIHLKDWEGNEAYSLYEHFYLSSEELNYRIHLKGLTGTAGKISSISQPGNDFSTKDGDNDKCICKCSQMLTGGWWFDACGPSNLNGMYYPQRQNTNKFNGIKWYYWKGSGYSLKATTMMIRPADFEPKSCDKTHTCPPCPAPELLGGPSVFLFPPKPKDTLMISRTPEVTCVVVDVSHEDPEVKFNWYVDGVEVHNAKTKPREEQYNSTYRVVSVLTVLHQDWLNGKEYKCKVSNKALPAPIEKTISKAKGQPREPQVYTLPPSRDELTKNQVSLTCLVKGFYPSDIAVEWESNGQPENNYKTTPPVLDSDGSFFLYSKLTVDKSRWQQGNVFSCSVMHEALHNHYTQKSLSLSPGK
# Experiment Description: SPR, antibody captured, room temperature
Observable: Kd (pM)
Give bare numbers, in pM.

These solved cases illustrate the format of a correct answer.
1. H2M742N (antibody, V domains shown) VH: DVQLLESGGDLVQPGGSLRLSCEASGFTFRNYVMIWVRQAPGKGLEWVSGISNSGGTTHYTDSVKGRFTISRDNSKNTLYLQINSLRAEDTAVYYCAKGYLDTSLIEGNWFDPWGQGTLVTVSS VL: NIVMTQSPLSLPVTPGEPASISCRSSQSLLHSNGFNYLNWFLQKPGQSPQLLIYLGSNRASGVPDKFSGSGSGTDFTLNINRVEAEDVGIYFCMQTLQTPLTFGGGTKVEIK :: 295
2. H2M730N (antibody, V domains shown) VH: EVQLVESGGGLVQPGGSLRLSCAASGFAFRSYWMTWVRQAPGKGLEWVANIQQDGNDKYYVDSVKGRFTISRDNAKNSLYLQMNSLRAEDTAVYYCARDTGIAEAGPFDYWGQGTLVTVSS VL: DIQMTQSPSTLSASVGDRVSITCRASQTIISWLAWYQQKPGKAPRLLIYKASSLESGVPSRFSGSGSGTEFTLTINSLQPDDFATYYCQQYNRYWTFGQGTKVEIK :: 210

Now examine the next entry.
Just so you know, measured Kd for H2M750N (antibody, V domains shown) VH: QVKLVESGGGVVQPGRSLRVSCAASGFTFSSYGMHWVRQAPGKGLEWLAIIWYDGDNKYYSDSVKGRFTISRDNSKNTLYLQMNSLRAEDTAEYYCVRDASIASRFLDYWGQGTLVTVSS VL: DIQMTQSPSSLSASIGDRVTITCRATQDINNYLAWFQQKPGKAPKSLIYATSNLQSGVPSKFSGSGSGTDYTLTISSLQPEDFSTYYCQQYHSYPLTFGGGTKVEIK came out at 362
